The values you see were collected from PubChem BioAssay.

# System: transactivating tegument protein VP16 (Human herpesvirus 1)
# MEASUREMENT_NOTES: VP16 transactivation reporter inhibitors, counter-screen for SRC2 inhibitor project, cell-based, luminescence, single concentration (AID 652007)
# PARTICULARS: cell-based VP16 transactivation luciferase reporter, at 8.9 µM
The source made the active and inactive calls. No stated cut-off is given here; in the data, active means inhibition above about 36%; inactive means the rest.
Classes used: true = active, false = inactive

INSERT INTO measurements (molecule, class) VALUES
  ('CN(Cc1cccc(-c2cccnc2)c1)C(=O)Oc1ccc([N+](=O)[O-])cc1', 'false'),
  ('O=C(c1ccccc1)C(CN1CCCC1)c1ccccc1 (stereo not given)', 'false'),
  ('COC1C(O)C(C)OC(OC2CCC3(C)C(CCC4C3C(O)CC3(C)C(C5=CC(=O)OC5)CCC43O)C2)C1O (stereo not given)', 'true'),
  ('O=Cc1cn(Cc2ccc(F)cc2Cl)c2ccccc12', 'false'),
  ('Cc1nc2cc(-c3ccc(Cl)cc3)nn2c(C)c1CCC(=O)N1CCC2(CC1)OCCO2', 'false');

---

Quick reference for inhibition among some molecules
# MEASUREMENT_TARGET: Nuclear receptor subfamily 5 group A member 2 (Homo sapiens)
# MEASUREMENT_NOTES: LRH-1 (NR5A2) inverse agonists, retest, confirmation, cell-based, luminescence (AID 651613);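 further: HEK293T cells co-transfected with LRH-1 and StAR promoter luciferase reporter; 0% = vehicle wells and 100% = parental cells lacking receptor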
# PARTICULARS: cell-based LRH-1 luciferase reporter, inverse agonism; at 3.6 µM; hits give high values
QUANTITY_KIND: inhibition (%)

INSERT INTO results (molecule, quantity_kind, measured_value) VALUES
  ('Cc1cc(OCC(=O)OC(C)C)c2c3c(c(=O)oc2c1)CCCC3', 'inhibition', 57.9),
  ('CC(C)(C)c1ccc(CSc2cnn(C(C)(C)C)c(=O)c2Cl)cc1', 'inhibition', 99.2),
  ('C[C@@H]1O[C@@H](O[C@@H]2C=C3CC[C@@H]4C(CC[C@]5(C)[C@@H](c6ccc(=O)oc6)CC[C@]45O)[C@@]3(C)CC2)[C@H](O)[C@H](O)[C@H]1O (stereo not given in full)', 'inhibition', 111),
  ('Cc1ccc(-c2cc(-c3ccccc3)cc(-c3ccccc3)[n+]2-c2ccccc2)cc1', 'inhibition', 110),
  ('CC1C(OC(=O)CCC(=O)NC(C)(C)CO)O[C@H]2OC3(C)CC[C@H]4[C@H](C)CCC1C24OO3 (stereo not given in full)', 'inhibition', 101),
  ('CCOC(=O)[C@]12Cc3c(cc(OC)c(OC)c3OC)[C@H]1N(C1CCCCC1)C(=O)c1ccccc12', 'inhibition', 99.8),
  ('C[C@@H]1O[C@@H](O[C@@H]2C=C3CCC4C(CC[C@]5(C)[C@@H](c6ccc(=O)oc6)CC[C@]45O)[C@@]3(C)CC2)[C@H](O)[C@H](O)[C@H]1O (stereo not given in full)', 'inhibition', 110),
  ('CCOc1cc(C=O)ccc1O', 'inhibition', 41.4),
  ('O=c1[nH]c2ccccc2n1C1CCN(C(c2cccc3ccccc23)c2nnnn2Cc2ccccc2)CC1 (stereo not given)', 'inhibition', 18.9),
  ('CCN1CCN(c2cc(N3CCCC3)c([N+](=O)[O-])cc2F)CC1', 'inhibition', 51.2),
  ('N#CCCn1cc(C(=O)Nc2ccc([N+](=O)[O-])cc2)c(-c2ccccc2)n1', 'inhibition', 35.3),
  ('CC1CCN(C(=O)CCl)CC1', 'inhibition', 58.2),
  ('CCOC(=O)[C@]12Cc3cc(OC)ccc3[C@H]1N(C1CCCCC1)C(=O)c1ccccc12', 'inhibition', 93.3),
  ('CC12CCC3C(CCC4(O)CC(O)CCC34C=NO)C1(O)CCC2C1=COC(=O)C1 (stereo not given)', 'inhibition', 110),
  ('COc1ccc(CC2NCC(O)C2OC(C)=O)cc1 (stereo not given)', 'inhibition', 111),
  ('CN(C)c1ccc(-[n+]2c(-c3ccccc3)cc(-c3ccccc3)cc2-c2ccccc2)cc1', 'inhibition', 107),
  ('NC(Cc1ccc(F)cc1)c1csc(Nc2ncccn2)n1 (stereo not given)', 'inhibition', 43.3),
  ('CCOC(=O)c1c(C)n(CC(O)CN2CCOCC2)c2cc(Br)c(OC)cc12 (stereo not given)', 'inhibition', 57.1),
  ('O=Cc1cn(Cc2cccc([N+](=O)[O-])c2)c2ccccc12', 'inhibition', 74.4),
  ('CC(=O)OC1CC2OC3C=C(C)CCC3(C)C1(C)C21CO1 (stereo not given)', 'inhibition', 111);
